# Test system: MIA PaCa-2 cells
# PARTICULARS: read-out: IC50 MIA PaCa-2; human pancreatic carcinoma cell, 72 h, mean ± SE (n = 3)
// reported IC50 per item
PARAMETER: IC50 (nM)

[[record]]
smiles_code = "CC(C)[C@H]1C(=O)OC[C@@H](NC(=O)c2ccc3ncsc3c2)C(=O)N[C@@H](C)C(=O)N(C)[C@H]2CSC[C@@H](C(=O)N1C)N(C)C(=O)[C@H](C)NC(=O)[C@H](NC(=O)c1ccc3ncsc3c1)COC(=O)[C@H](C(C)C)N(C)C2=O"
display_unit = "nM"
readout_relation = ">"
experimental_value = 10000

[[record]]
smiles_code = "CC(C)[C@H]1C(=O)OC[C@@H](NC(=O)c2cnc3ccccc3c2)C(=O)N[C@@H](C)C(=O)N(C)[C@H]2CSC[C@@H](C(=O)N1C)N(C)C(=O)[C@H](C)NC(=O)[C@H](NC(=O)c1cnc3ccccc3c1)COC(=O)[C@H](C(C)C)N(C)C2=O"
display_unit = "nM"
readout_relation = "="
experimental_value = 399

[[record]]
smiles_code = "CC(C)[C@H]1C(=O)OC[C@@H](NC(=O)c2ccc(C(=O)c3ccccc3)cc2)C(=O)N[C@@H](C)C(=O)N(C)[C@H]2CSC[C@@H](C(=O)N1C)N(C)C(=O)[C@H](C)NC(=O)[C@H](NC(=O)c1ccc(C(=O)c3ccccc3)cc1)COC(=O)[C@H](C(C)C)N(C)C2=O"
display_unit = "nM"
readout_relation = ">"
experimental_value = 10000

[[record]]
smiles_code = "CS[C@H]1SC[C@H]2C(=O)N(C)[C@@H](C(C)C)C(=O)OC[C@@H](NC(=O)c3cnc4ccccc4n3)C(=O)N[C@@H](C)C(=O)N(C)[C@@H]1C(=O)N(C)[C@@H](C(C)C)C(=O)OC[C@@H](NC(=O)c1cnc3ccccc3n1)C(=O)N[C@@H](C)C(=O)N2C"
display_unit = "nM"
readout_relation = "="
experimental_value = 0.75


All values here come from paper PMC10985088.
